Molecular target: recombinant human melanocortin-1 receptor (hMCR-1a) in membrane homogenates of HEK-293 cells (human) (UniProt Q01726)
Sequence (Q01726 whole entry): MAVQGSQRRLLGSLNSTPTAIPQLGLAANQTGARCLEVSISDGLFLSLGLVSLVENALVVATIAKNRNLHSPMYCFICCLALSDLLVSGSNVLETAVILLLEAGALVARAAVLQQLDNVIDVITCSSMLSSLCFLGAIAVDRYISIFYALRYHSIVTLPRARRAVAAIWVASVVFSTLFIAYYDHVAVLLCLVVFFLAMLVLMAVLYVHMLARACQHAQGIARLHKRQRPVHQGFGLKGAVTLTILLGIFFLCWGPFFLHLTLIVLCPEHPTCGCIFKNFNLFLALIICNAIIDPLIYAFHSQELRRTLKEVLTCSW
Test: competitive inhibition of [I125]-NDP-alpha-MSH, hMCR-1 HEK-293 membranes
[ ]: non-standard residue; d: D form. Nle = CCCC[C@H](N)C(=O)O; Dab = NCC[C@H](N)C(=O)O

binder | Ki, nM
Ac-[Nle]AH[dF]R[dP]W-NH2 (SMILES CCCC[C@H](NC(C)=O)C(=O)N[C@@H](C)C(=O)N[C@@H](Cc1c[nH]cn1)C(=O)N[C@H](Cc1ccccc1)C(=O)N[C@@H](CCCNC(=N)N)C(=O)N1CCC[C@@H]1C(=O)N[C@@H](Cc1c[nH]c2ccccc12)C(N)=O) [Ac-Nle-Ala-His-D-Phe-Arg-D-Pro-Trp-NH2] | 14
Ac-[Nle]A[Dab][dF]RAW-NH2 (SMILES CCCC[C@H](NC(C)=O)C(=O)N[C@@H](C)C(=O)N[C@@H](CCN)C(=O)N[C@H](Cc1ccccc1)C(=O)N[C@@H](CCCNC(=N)N)C(=O)N[C@@H](C)C(=O)N[C@@H](Cc1c[nH]c2ccccc12)C(N)=O) [Ac-Nle-Ala-Dab-D-Phe-Arg-Ala-Trp-NH2] | 2
Ac-[Nle]AH[dF]RA[dW]-NH2 (SMILES CCCC[C@H](NC(C)=O)C(=O)N[C@@H](C)C(=O)N[C@@H](Cc1c[nH]cn1)C(=O)N[C@H](Cc1ccccc1)C(=O)N[C@@H](CCCNC(=N)N)C(=O)N[C@@H](C)C(=O)N[C@H](Cc1c[nH]c2ccccc12)C(N)=O) [Ac-Nle-Ala-His-D-Phe-Arg-Ala-D-Trp-NH2] | 7
